Tested on: Onchocerca ochengi
RUN DESCRIPTION: WHO-TDR: Onchocerciasis
Assay type: functional
Set-up: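 at 12.5 µM on microfilariae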
Reported % Inhibition is given for each of the following compounds.

COMPOUND	% Inhibition (%)
COc1ccc(C)cc1S(=O)(=O)N1CCN(c2ccc(Nc3cccnc3)nn2)CC1	100
CCCN1C(=O)C(C)(C)COc2cc(NS(=O)(=O)c3c(C)c(C)cc(C)c3C)ccc21	100
CC(=O)N1CCc2ccc(NC(=O)c3ccc(F)c(F)c3)cc21	75
CC(C)S(=O)(=O)Nc1ccc2c(c1)NC(=O)C(C)(C)CO2	100
O=C(Nc1nc(-c2ccncc2)cs1)C1CCCN(S(=O)(=O)c2ccc(Cl)s2)C1 (stereo not drawn)	50
CCn1ccc(C(=O)Nc2ccc(C)cc2C(=O)c2ccccc2)n1	100
CC1(C)COc2ccc(NS(=O)(=O)c3cccc4ccccc34)cc2NC1=O	100
CCCC(=O)N1CCN(c2ccc(Nc3ccncc3)nn2)CC1	0
CCc1nnc(NS(=O)(=O)c2ccc(NC(=O)c3ccc(S(=O)(=O)N4CCCCC4C)cc3)cc2)s1 (stereo not drawn)	100
COc1ccccc1CNC(=O)CCc1csc(NC(=O)c2ccc(F)cc2)n1	100
CCOC(=O)c1ccccc1NC(=O)CSc1ncc(-c2ccccc2)[nH]1	100
Cc1ccc(S(=O)(=O)NCC(c2cccc3ccccc23)N2CCOCC2)cc1C (stereo not drawn)	100
O=c1ccc(-c2ccc(F)cc2)nn1CCCNS(=O)(=O)/C=C/c1ccccc1	100
Cc1ccc(S(=O)(=O)CC(=O)Nc2cccc(Cl)c2)cc1	100
O=C(CCS(=O)(=O)c1ccc(Cl)cc1)Nc1cccc(-c2nc3ccccc3o2)c1	100
Cc1cc(C)cc(NC(=O)NCCNc2ccc(Nc3ccccn3)nn2)c1	100
O=C(c1ccc(C(F)(F)F)cc1)N1CCN(c2ccc(Nc3cccnc3)nn2)CC1	100
Cc1ccc(-n2ccnc2N2CCN(C(=O)/C=C\c3ccccc3)CC2)cc1	100
FC(F)(F)c1ccc(Nc2ncnc3[nH]ncc23)cc1	100
O=S(=O)(CCCOc1ccc(F)cc1)N1CCc2ccccc21	100
COc1nn(C)cc1-c1nnc(SCC(=O)N2CCC(Cc3ccccc3)CC2)n1C	100
O=C(NCCOc1ccc(-c2ccc(F)cc2)nn1)c1cccc(C(F)(F)F)c1	100
O=C(Cn1c(=O)n(Cc2cccs2)c(=O)c2ncccc21)OCc1ccccc1	100
Cc1cccc(NC(=O)Cn2cc(S(=O)(=O)c3ccc(F)cc3)c3ccccc32)n1	100
COc1ccc(-c2cccc(NC(=O)Nc3ccc(C)cc3)c2)nn1	100
CN1CCCc2cc(C(CNC(=O)c3cccs3)N3CCCCC3)ccc21 (stereo not drawn)	100
CC(C)(C)n1ncc2c(=O)n(CCC(=O)Nc3ccc4c(c3)OCO4)cnc21	0
NS(=O)(=O)c1ccc2nc(NC(=O)CCSc3ccc(Cl)cc3)sc2c1	100
COc1ccc(CCC(=O)NCCc2ccc(N3CCCC3)cc2)cc1	0
Cc1ccc(-n2ccnc2N2CCN(C(=O)c3ccccc3SC(F)F)CC2)cc1	100
CC(=O)c1sc(NC(=O)C2CCCCN2S(C)(=O)=O)nc1-c1ccccc1 (stereo not drawn)	100
Cc1ccc(SCC(=O)Nc2ccccc2-c2nc3ccccc3[nH]2)cc1	100
O=C(Cc1cccs1)N1CCN(c2nccn2-c2cccc(Cl)c2)CC1	50
Cc1cc(=O)[nH]c(-n2nc(-c3cccs3)cc2NC(=O)C2(c3ccc(Cl)cc3)CCCC2)n1	75
Cc1ccc(-c2nc(CSc3nc(O)cc(C(F)(F)F)n3)c(C)o2)cc1	100
CSc1nc(NC(C)C)c2cnn(CCNC(=O)C34CC5CC(CC(C5)C3)C4)c2n1	100
CC(C)CC(=O)N1CCN(c2ccc(-c3ccccn3)nn2)CC1	100
CC(C)c1ccc(Nc2ncnc3[nH]ncc23)cc1	100
O=C(CCc1csc(NC(=O)c2ccco2)n1)Nc1ccc(Cl)cc1	100
NC(=O)c1cc(-c2ccccc2)sc1NC(=O)Cc1ccc2c(c1)OCO2	100
CCOc1ncccc1C(=O)N1CCN(c2ccc(-c3ccc(Cl)cc3)nn2)CC1	0
Cc1cc(-c2nnc(NC(=O)CSc3ccc(F)cc3)o2)nn1C	0
COC(=O)c1ccc(CSc2ccc(NC(=O)C(C)C)nn2)o1	0
